Source of measurements: patent US7541367B2

Target: HER2 (Homo sapiens, UniProt P04626)
Construct: GST (Glutathione-S-Transferase) (N); HIS6 (N); thrombin cleavage site (N)
Sequence (P04626 679-1255): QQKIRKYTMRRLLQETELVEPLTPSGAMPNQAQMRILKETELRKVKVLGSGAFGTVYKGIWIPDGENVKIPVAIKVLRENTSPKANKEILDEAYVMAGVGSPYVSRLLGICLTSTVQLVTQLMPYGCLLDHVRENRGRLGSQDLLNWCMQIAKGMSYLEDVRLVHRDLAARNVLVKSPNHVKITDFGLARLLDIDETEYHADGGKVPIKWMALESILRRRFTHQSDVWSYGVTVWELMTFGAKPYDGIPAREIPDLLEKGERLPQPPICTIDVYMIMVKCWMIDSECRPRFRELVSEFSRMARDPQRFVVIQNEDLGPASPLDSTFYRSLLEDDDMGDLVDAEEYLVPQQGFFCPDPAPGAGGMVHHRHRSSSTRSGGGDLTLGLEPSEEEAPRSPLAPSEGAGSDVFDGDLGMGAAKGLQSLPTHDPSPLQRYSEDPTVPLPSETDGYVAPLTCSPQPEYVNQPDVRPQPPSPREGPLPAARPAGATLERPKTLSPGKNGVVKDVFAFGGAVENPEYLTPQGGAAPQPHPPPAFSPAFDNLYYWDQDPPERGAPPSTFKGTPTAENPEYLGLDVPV
Test: HER2 kinase screening assay (33P-ATP FlashPlate);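 further: Biotin-poly(GT) 4:1 peptide captured on streptavidin FlashPlate, 33P transfer from γ-ATP read by scintillation counting, lower incorporation means inhibition, 1% DMSO final, 100 µL reaction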
Conditions: GST-HIS6 HER-2 aa 679 to 1255; 10 μM ATP; 1 hr at 30° C
pIC50: −log10 of the molar value.
pIC50 by entry:
assay.endpoint: pIC50

- COCc1cccc2[nH]c(-c3n[nH]c4ncc(-c5c[nH]c6ncccc56)cc34)nc12 [Cpd 37]: < 4.00
- CNCc1cncc(-c2cnc3[nH]nc(-c4nc5c(COC)cccc5[nH]4)c3c2)c1 [Cpd 56]: < 4.00
- CN(C)CCN(C)C(=O)c1cccc2[nH]c(-c3n[nH]c4ncc(-c5cncc6ccccc56)cc34)nc12 [Cpd 26]: < 5.00
- c1ccc2c(-c3cnc4[nH]nc(-c5nc6cc(N7CCOCC7)ccc6[nH]5)c4c3)cncc2c1 [Cpd 51]: < 4.00
- COCc1cccc2[nH]c(-c3n[nH]c4ncc(-c5cncc(C=O)c5)cc34)nc12 [Cpd 41]: ~4.00
- O=C(c1cccc2[nH]c(-c3n[nH]c4ncc(-c5cncc6ccccc56)cc34)nc12)N1CCCCC1 [Cpd 22]: < 5.00
- O=C(Nc1cccnc1)c1cccc2[nH]c(-c3n[nH]c4ncc(-c5cncc6ccccc56)cc34)nc12 [Cpd 48]: < 4.00
- COCCNCc1cncc(-c2cnc3[nH]nc(-c4nc5c(COC)cccc5[nH]4)c3c2)c1 [Cpd 75]: < 5.00

* * *

System: HCT-116 colon carcinoma
Assay: Cell Proliferation Inhibition Assay (14C-thymidine incorporation), HCT-116
Format: cell-based
Details: Homo sapiens, HCT-116, HCT-116 cells
pIC50: −log10 of the molar value.
assay.endpoint: pIC50

* CNCc1cncc(-c2cnc3[nH]nc(-c4nc5cc(OC(F)(F)F)ccc5[nH]4)c3c2)c1 [Cpd 96] | 7.26
* COCc1cccc2[nH]c(-c3n[nH]c4ncc(-c5cncc(CN6CCOCC6)c5)cc34)nc12 [Cpd 54] | 7.47
* COCc1cccc2[nH]c(-c3n[nH]c4ncc(-c5ccc(F)nc5)cc34)nc12 [Cpd 71] | 6.55
* FC(F)(F)Oc1ccc2[nH]c(-c3n[nH]c4ncc(-c5cccnc5)cc34)nc2c1 [Cpd 94] | 6.28

* * *

Target or system VEGF-R2 (Rattus norvegicus): recorded IC50 listed per item.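 Further: Read-out is ³³P incorporation from ³³P-γ-ATP into biotinylated peptide substrate captured on streptavidin FlashPlate, counted by scintillation, 1% DMSO final, inhibition scaled between per-plate maximum and minimum signals.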
assay.endpoint: IC50 (µM)

• COCc1cccc2[nH]c(-c3n[nH]c4ncc(-c5cncc(CNCCN(C)C)c5)cc34)nc12 = 1.37
• O=C(c1cccc2[nH]c(-c3n[nH]c4ncc(-c5cncc6ccccc56)cc34)nc12)N1CCCCC1 = 2.12

* * *

System: HCT-116 colon carcinoma
Experiment: Cell Proliferation Inhibition Assay (14C-thymidine incorporation), HCT-116;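 further: proliferation measured as methyl 14C-thymidine uptake into new DNA, counted in 96-well scintillating microplates, compared with DMSO-only control wells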
Assay type: cell-based
Settings: Homo sapiens, HCT-116, HCT-116 cells
IC50 by entry:
assay.endpoint: IC50 (nM)

- COCc1cccc2[nH]c(-c3n[nH]c4ncc(Br)cc34)nc12 [Cpd 11]: 866
- COCc1cccc2[nH]c(-c3n[nH]c4ncc(-c5ccc(N6CCN(C(=O)OC(C)(C)C)CC6)nc5)cc34)nc12 [Cpd 67]: 24.5
- O=C(Nc1cccnc1)c1cccc2[nH]c(-c3n[nH]c4ncc(-c5cncc6ccccc56)cc34)nc12 [Cpd 48]: 488
- O=C(NC1CCC(O)CC1)c1cccc2[nH]c(-c3n[nH]c4ncc(-c5cncc6ccccc56)cc34)nc12 (stereo not drawn) [Cpd 29]: 255
- COCc1cccc2[nH]c(-c3n[nH]c4ncc(-c5cncc(CN(C)C)c5C)cc34)nc12 [Cpd 61]: 99.2
- CN(C)CCN(C)C(=O)c1cccc2[nH]c(-c3n[nH]c4ncc(-c5cncc6ccccc56)cc34)nc12 [Cpd 26]: 890
- COCc1cccc2[nH]c(-c3n[nH]c4ncc(-c5cncc(CN(C)C)c5)cc34)nc12 [Cpd 55]: 186
- O=C(c1cccc2[nH]c(-c3n[nH]c4ncc(-c5cncc6ccccc56)cc34)nc12)N1CCOCC1 [Cpd 24]: 743
- CN1CCN(c2ccc3[nH]c(-c4n[nH]c5ncc(-c6cccnc6)cc45)nc3c2)CC1 [Cpd 89]: 423
- CCCCNCc1cncc(-c2cnc3[nH]nc(-c4nc5c(COC)cccc5[nH]4)c3c2)c1 [Cpd 79]: 218
- c1cncc(-c2cnc3[nH]nc(-c4nc5cc6c(cc5[nH]4)OCO6)c3c2)c1 [Cpd 99]: 271
- COCc1cccc2[nH]c(-c3n[nH]c4ncc(-c5cncc(C=O)c5)cc34)nc12 [Cpd 41]: 161
- COCc1cccc2[nH]c(-c3n[nH]c4ncc(-c5cncc(CO)c5)cc34)nc12 [Cpd 44]: 128
- COCc1cccc2[nH]c(-c3n[nH]c4ncc(-c5cncc(CN6CCOCC6)c5C)cc34)nc12 [Cpd 60]: 39.5
- COCc1cccc2[nH]c(-c3n[nH]c4ncc(-c5cncc(CNCCN(C)C)c5)cc34)nc12 [Cpd 76]: 255
- CC(C)NCc1cccc2[nH]c(-c3n[nH]c4ncc(-c5cncc6ccccc56)cc34)nc12 [Cpd 13]: 109
- CCN(CC)Cc1cccc2[nH]c(-c3n[nH]c4ncc(-c5cncc6ccccc56)cc34)nc12 [Cpd 5]: 30.6
- CN(C)Cc1cncc(-c2cnc3[nH]nc(-c4nc5cc(N6CCN(C)CC6)ccc5[nH]4)c3c2)c1 [Cpd 88]: 431
- CCNCc1cncc(-c2cnc3[nH]nc(-c4nc5ccc(F)cc5[nH]4)c3c2)c1 [Cpd 106]: 93.7
- COCc1cccc2[nH]c(-c3n[nH]c4ncc(-c5cncc(CNCCO)c5)cc34)nc12 [Cpd 77]: 643
- CN1CCC(NC(=O)c2cccc3[nH]c(-c4n[nH]c5ncc(-c6cncc7ccccc67)cc45)nc23)CC1 [Cpd 28]: 4990
- CN1CCN(c2ccc3[nH]c(-c4n[nH]c5ncc(-c6cncc(CN7CCCC7)c6)cc45)nc3c2)CC1 [Cpd 87]: 1050
- COCc1cccc2[nH]c(-c3n[nH]c4ncc(-c5cncc6ccccc56)cc34)nc12 [Cpd 4]: 10.1
- COCc1cccc2[nH]c(-c3n[nH]c4ncc(-c5cc[nH]c5)cc34)nc12 [Cpd 40]: 56.5
- COCc1cccc2[nH]c(-c3nn(C)c4ncc(-c5cncc6ccccc56)cc34)nc12 [Cpd 33]: 203
- Cc1cccc2[nH]c(-c3n[nH]c4ncc(-c5cncc6ccccc56)cc34)nc12 [Cpd 2]: 1640
- COCc1cccc2[nH]c(-c3n[nH]c4ncc(-c5cncc(OC)c5)cc34)nc12 [Cpd 64]: 26.1
- COCc1cccc2[nH]c(-c3n[nH]c4ncc(-c5ccc(N6CCOCC6)nc5)cc34)nc12 [Cpd 66]: 20.4
- c1ccc2c(-c3cnc4[nH]nc(-c5nc6c(Cn7ccnc7)cccc6[nH]5)c4c3)cncc2c1 [Cpd 12]: 1890
- CNCc1cncc(-c2cnc3[nH]nc(-c4nc5c(COC)cccc5[nH]4)c3c2)c1 [Cpd 56]: 313
- COc1ccc2nc(-c3n[nH]c4ncc(-c5cccnc5)cc34)[nH]c2c1 [Cpd 90]: 299
